# TEST PROTOCOL: Quantitative highthroughput screen to assess conditional lethalithy of NOMO1 cells grown in RPMI1640 with dialyzed fetal bovine serum (RPMI+ds) (AID 1963877); further: nearly all actives have a fitted effect of over 30% in size
# RECORDED CONDITIONS: NOMO1 in RPMI+dialyzed FBS viability, ATP luminescence, 48 h; series mostly up to 45.8 µM
# Experimental: Assay Provider: Jason Cantor Ph.D. Department of Biochemistry University of Wisconsin-Madison, Madison, WI, USA Chemical screening studies have identified drug sensitivities across hundreds of cancer cell lines but most putative therapeutics fail to translate. […] Sets of conditional anticancer compounds spanned phases of clinical development and included non-oncology drugs were assessed. […] 6; Detection; Luminescence, Viewlux PerkinElmer. […]
Inconclusive results are not listed. Calls of active or inactive are those of the source. The call rests on the fitted dose curve; in most records, active means well fitted cell-killing curve with a large enough effect; inconclusive means small, poorly fitted or top-dose-only effect; inactive means flat fitted curve, though single readings scatter.
The reply should name one outcome from active, inactive

Query: So what was the verdict on COc1ccc2cc([C@H](C)C(=O)O)ccc2c1 in this test?
Result: inactive

Continuing:
Query: Identify the outcome logged in this assay for the molecule shown: CCC(CC)[C@H](NC(C)=O)[C@@H]1[C@H](O)[C@@H](C(=O)O)C[C@@H]1N=C(N)N
Result: inactive

Query: # outcome recorded in this test, key = N[C@@H]1CONC1=O
Result: inactive

Query: What call does the record list for N[C@H](CSC(c1ccccc1)(c1ccccc1)c1ccccc1)C(=O)O ?
Result: inactive

---

# TEST PROTOCOL: Viability qHTS for spleen associated tyrosine kinase inhibitor (SYKi) drug resistant MV4-11 cells (AID 1963824); further: nearly all actives have a fitted effect of over 35% in size
# RECORDED CONDITIONS: SYKi-resistant MV4-11 viability, CellTiter-Glo, 72 h; series mostly up to 45 µM
# Protocol: Department of Medicine, Hematology/Oncology University Hospital Frankfurt, Germany. Trials have shown promising clinical activity of the selective SYK inhibitor entospletinib in patients with high expressing HOXA9/MEIS1 acute leukemias. […] 7; Detection; Luminescence; ViewLux plate reader (PerkinElmer). […] 1. Quantitative high-throughput screening (qHTS) of small molecule compounds was conducted on drug resistant SYKi MV4-11 cell line. […] 7. Luminescence was measured on a ViewLux plate reader (PerkinElmer).
Results filed as inconclusive are left out. Activity calls are given as the source filed them. Calls follow the shape of the dose curve; as a rule, active = well fitted cell-killing curve with a large enough effect; inconclusive = small, poorly fitted or top-dose-only effect, or effect the other way; inactive = no such curve, though single readings can be large or run the other way.
Hi there, use one of these labels in your reply, thanks! t for active, f for inactive

Reference set, count: 3
Query: // param item: C#C[C@]1(O)CC[C@H]2[C@@H]3CCc4cc(OC)ccc4[C@H]3CC[C@@]21C ; yields the recorded call
Result: t

Query: Short answer needed: outcome of this test for C[C@@H](N)C1CCC(C(=O)Nc2ccncc2)CC1 (stereo partly specified) ?
Result: f

Query: What did the test return for CC1(c2ccccc2)OC(C(=O)O)=CC1=O (stereo unspecified) ?
Result: f

More entries:
Query: Which result was noted for this molecule in the test: CNC(=O)c1ccc2cc(C3(O)CCn4cncc43)ccc2c1 (stereo unspecified)
Result: f

Query: Recorded test outcome, item CCOc1cc(C(C)(C)C)ccc1C1=NC(C)(c2ccc(Cl)cc2)C(C)(c2ccc(Cl)cc2)N1C(=O)N1CCN(CCCS(C)(=O)=O)CC1 (stereo unspecified)
Result: t

Query: Record lookup: outcome of this test for COc1cc2ncnc(Nc3ccc(F)c(Cl)c3)c2cc1NC(=O)/C=C/CN1CCCCC1 ?
Result: t

Query: Could you please tell me the result logged for O=C(NCc1cccc(O)c1)c1cc2cc(F)ccc2[nH]1 in this assay?
Result: t

Query: Given NC(=O)C1(N2CCCCC2)CCN(CCCC(=O)c2ccc(F)cc2)CC1 , state the outcome it received in this test.
Result: f

Query: Look up the recorded call for CC1CCC2(C=O)C(CO)=CCCC2C1(C)CC(=O)O (stereo unspecified) in this test.
Result: f

Query: Tell me the assay call for CC(C)(O)C1CC=C(C(=O)OCC2OC(Oc3c(O)cc(C(=O)O)cc3O)C(O)C(O)C2O)CC1 (stereo unspecified) please.
Result: f

Query: How did this test come out for NS(=O)(=O)c1cc(C2(O)NC(=O)c3ccccc32)ccc1Cl (stereo unspecified) ?
Result: f

Query: State the result this test recorded for O=C1C[C@]23C=CCN4CCC5c6cc7c(cc6N1[C@@]5(CC2)C43)OCO7 (stereo partly specified) .
Result: t

Query: Short answer needed: outcome of this test for CC1(C)CC[C@]2(C(=O)O[C@@H]3O[C@H](CO)[C@@H](O)[C@H](O)[C@H]3O)CC[C@]3(C)C(=CCC4[C@@]5(C)C[C@@H](O)[C@H](O)[C@@](C)(CO)C5CC[C@]43C)C2[C@@H]1O (stereo partly specified) ?
Result: f

Reference for the values: PubChem BioAssay (NCATS)
